Experiment: in vitro
Settings: human, HEK293T cells
Description: Cytotoxicity against HEK293T cells assessed as cell viability at 6.3 uM by CellTiter-Glo assay relative to control
Positions of bridges follow the written chain, without caps; N, C: chain ends. Residues, ends and D or L forms follow the SMILES beside them. *: point of attachment. X2 = CC(=O)[C@H]1CSC(c2nc3ccc(OC(=O)OCCCS*)cc3s2)=N1
MEASUREMENT NAME: viability at 6.3 µM (%)
Kindly answer with a numeric value in %, unit omitted.

Task: Looking for the measured viability at 6.3 µM of CC(=O)N[C@@H](CSSCCCOC(=O)Oc1ccc2nc(C3=N[C@@H](C(C)=O)CS3)sc2c1)C(=O)N[C@H]1CSSC[C@@H](C(=O)N[C@@H](CCCNC(=N)N)C(=O)N[C@@H](CCCNC(=N)N)C(=O)N[C@@H](CCCNC(=N)N)C(N)=O)NC(=O)[C@H](Cc2c[nH]c3ccccc23)NC(=O)[C@@H]2CCCN2C(=O)[C@H](Cc2ccc(O)cc2)NC(=O)CNC(=O)[C@H](Cc2cnc[nH]2)NC(=O)[C@H](Cc2ccc(O)cc2)NC(=O)[C@H](CCCCN)NC(=O)[C@H](C)NC(=O)[C@H](C(C)C)NC1=O (Ac-C(X2)CVAKYHGYPWCRRR-NH2; disulfide 2-12) , can you help?
Output: 105
